- System Tested: Nuclear factor erythroid 2-related factor 2 (Homo sapiens) (UniProt Q16236)
- Protocol Summary: Induction of Nrf2/ARE activation in human Hela cells at 10 uM measured after 12 to 24 hrs by luciferase reporter gene assay relative to control
- Format: cell-based
- Cond: filed as activator, time 12-24 hrs
Value Type: fold change (FC)

Example results:
- O=C(/C=C/c1ccc(Cl)c(Cl)c1)N1CCN(Cc2noc(Cc3c[nH]c4ccccc34)n2)CC1: 6.64
- CS(=O)(=O)c1ccc(C(=O)N2CCN(Cc3noc(Cc4c[nH]c5ccccc45)n3)CC2)cc1: 1.52
- O=C(/C=C/c1ccc(O)c(O)c1)N1CCN(Cc2noc(Cc3c[nH]c4ccccc34)n2)CC1: 6.92
- c1ccc2cc(CN3CCN(Cc4noc(Cc5c[nH]c6ccccc56)n4)CC3)ccc2c1: 1.86

I. N#Cc1ccc(C(=O)N2CCN(Cc3noc(Cc4c[nH]c5ccccc45)n3)CC2)cc1
II. COc1cccc(/C=C/C(=O)N2CCN(Cc3noc(Cc4c[nH]c5ccccc45)n3)CC2)c1OC
III. COc1ccc(OC)c(/C=C/C(=O)N2CCN(Cc3noc(Cc4c[nH]c5ccccc45)n3)CC2)c1
IV. COc1ccc(/C=C/C(=O)N2CCN(Cc3noc(Cc4c[nH]c5ccccc45)n3)CC2)cc1
Exam item: Write the entries in order, lowest recorded fold change (FC) first. Kindly provide the labels arranged according to the requested ordering.
Marked response: I, IV, III, II
(I: 1.37, IV: 1.96, III: 4.35, II: 6.91)

----------
- System Tested: UniProt Q16236
- Protocol Summary: Induction of Nrf2/ARE activation in human Hela cells at 10 uM measured after 12 to 24 hrs by luciferase reporter gene assay relative to control
- Type: cell-based
- Cond: filed as activator, time 12-24 hrs
Value Type: fold change (FC)

- COc1cc(/C=C/C(=O)N2CCN(Cc3noc(Cc4c[nH]c5ccccc45)n3)CC2)cc(OC)c1OC: 6.23

I. COc1cccc(CN2CCN(Cc3noc(Cc4c[nH]c5ccccc45)n3)CC2)c1
II. O=C(/C=C/c1ccc(O)cc1)N1CCN(Cc2noc(Cc3c[nH]c4ccccc34)n2)CC1
III. Brc1ccc(CN2CCN(Cc3noc(Cc4c[nH]c5ccccc45)n3)CC2)cc1
IV. Cc1ccc(CN2CCN(Cc3noc(Cc4c[nH]c5ccccc45)n3)CC2)cc1
Exam item: // sort entries: fold change (FC), high to low The response must list the labels following the requested ordering.
Marked response: II, III, IV, I
(II: 6.25, III: 3.14, IV: 2.11, I: 1.43)

1. N#Cc1ccc(CN2CCN(Cc3noc(Cc4c[nH]c5ccccc45)n3)CC2)cc1
2. CC(C)(C)c1cc(O)ccc1O
3. O=C(/C=C/c1ccc(Cl)cc1)N1CCN(Cc2noc(Cc3c[nH]c4ccccc34)n2)CC1
4. Brc1cccc(CN2CCN(Cc3noc(Cc4c[nH]c5ccccc45)n3)CC2)c1
Exam item: Sort the molecules on fold change (FC); start with the lowest figure. Labels, ranked as asked.
Marked response: 4, 2, 3, 1
(4: 1.31, 2: 1.98, 3: 4.09, 1: 5.88)

A. O=C(/C=C/c1ccccc1O)N1CCN(Cc2noc(Cc3c[nH]c4ccccc34)n2)CC1
B. COc1cc(/C=C/C(=O)N2CCN(Cc3noc(Cc4c[nH]c5ccccc45)n3)CC2)cc(OC)c1O
C. c1ccc(CN2CCN(Cc3noc(Cc4c[nH]c5ccccc45)n3)CC2)cc1
Exam item: Order the entries by their reported fold change (FC), beginning at the minimum. Write out the labels following the order that was asked for.
Marked response: C, B, A
(C: 1.64, B: 2.65, A: 6.31)

----------
- System Tested: Nuclear factor erythroid 2-related factor 2 (Homo sapiens)
- Protocol Summary: Induction of Nrf2/ARE activation in human Hela cells at 5 uM measured after 12 to 24 hrs by luciferase reporter gene assay relative to control
- Format: cell-based
- Cond: filed as activator, time 12-24 hrs
Value Type: fold change (FC)

a. COc1cc(/C=C/C(=O)N2CCN(Cc3noc(Cc4c[nH]c5ccccc45)n3)CC2)cc(OC)c1O
b. Brc1cccc(CN2CCN(Cc3noc(Cc4c[nH]c5ccccc45)n3)CC2)c1
c. O=C(/C=C/c1cccc(O)c1)N1CCN(Cc2noc(Cc3c[nH]c4ccccc34)n2)CC1
d. COc1cc(OC)c(OC)cc1/C=C/C(=O)N1CCN(Cc2noc(Cc3c[nH]c4ccccc34)n2)CC1
Exam item: Returns the items ordered by fold change (FC), from maximum to minimum. # the answer lists labels in the order requested
Marked response: c, d, a, b

A. O=C(/C=C/c1cccc(Br)c1)N1CCN(Cc2noc(Cc3c[nH]c4ccccc34)n2)CC1
B. COc1cccc(/C=C/C(=O)N2CCN(Cc3noc(Cc4c[nH]c5ccccc45)n3)CC2)c1OC
Exam item: fold change (FC) comparison. Which is larger, A or B ? Mark your answer with the label of the selected entry.
Marked response: B
(B: 3.65, A: 1.86)

I. CS(=O)(=O)c1ccc(C(=O)N2CCN(Cc3noc(Cc4c[nH]c5ccccc45)n3)CC2)cc1
II. COc1ccccc1/C=C/C(=O)N1CCN(Cc2noc(Cc3c[nH]c4ccccc34)n2)CC1
Exam item: Please choose the item with the lower fold change (FC) value from this pair: I and II Write the label of whichever entry you select.
Marked response: I

P. c1ccc(CN2CCN(Cc3noc(Cc4c[nH]c5ccccc45)n3)CC2)cc1
Q. N#Cc1ccc(CN2CCN(Cc3noc(Cc4c[nH]c5ccccc45)n3)CC2)cc1
R. Brc1ccc(CN2CCN(Cc3noc(Cc4c[nH]c5ccccc45)n3)CC2)cc1
Exam item: List by increasing fold change (FC). Reply with the item labels sorted in the order that was asked for.
Marked response: P, R, Q
(P: 1.51, R: 2.16, Q: 3.14)

----------
- System Tested: Nuclear factor erythroid 2-related factor 2 (Homo sapiens) (UniProt Q16236)
- Protocol Summary: Induction of Nrf2/ARE activation in human Hela cells at 10 uM measured after 12 to 24 hrs by luciferase reporter gene assay relative to control
- Assay type: cell-based
- Cond: filed as activator, time 12-24 hrs
Value Type: fold change (FC)

Completed entries (count: 3):
* O=C(/C=C/c1cccc(O)c1)N1CCN(Cc2noc(Cc3c[nH]c4ccccc34)n2)CC1 | 7.04
* O=C(c1ccccc1)N1CCN(Cc2noc(Cc3c[nH]c4ccccc34)n2)CC1 | 1.44
* O=C(/C=C/c1cccc(Br)c1)N1CCN(Cc2noc(Cc3c[nH]c4ccccc34)n2)CC1 | 3.97

1. O=C(/C=C/c1ccc2c(c1)OCO2)N1CCN(Cc2noc(Cc3c[nH]c4ccccc34)n2)CC1
2. COc1cccc(/C=C/C(=O)N2CCN(Cc3noc(Cc4c[nH]c5ccccc45)n3)CC2)c1
Exam item: Min fold change (FC)? 1 | 2 Pick one; state its label.
Marked response: 2
(2: 2.97, 1: 4.97)

----------
- System Tested: UniProtKB Q16236
- Protocol Summary: Induction of Nrf2/ARE activation in human Hela cells at 1 uM measured after 12 to 24 hrs by luciferase reporter gene assay relative to control
- Format: cell-based
- Cond: filed as activator, time 12-24 hrs
Value Type: fold change (FC)

• COc1cccc(CN2CCN(Cc3noc(Cc4c[nH]c5ccccc45)n3)CC2)c1 = 1.15
• c1ccc(CN2CCN(Cc3noc(Cc4c[nH]c5ccccc45)n3)CC2)cc1 = 1.09
• Cc1ccc(CN2CCN(Cc3noc(Cc4c[nH]c5ccccc45)n3)CC2)cc1 = 1.18
• N#Cc1ccc(CN2CCN(Cc3noc(Cc4c[nH]c5ccccc45)n3)CC2)cc1 = 1.38
• COc1cc(OC)c(OC)cc1/C=C/C(=O)N1CCN(Cc2noc(Cc3c[nH]c4ccccc34)n2)CC1 = 1.32
• CC(C)(C)c1cc(O)ccc1O = 1.17
• O=C(/C=C/c1ccc(Cl)c(Cl)c1)N1CCN(Cc2noc(Cc3c[nH]c4ccccc34)n2)CC1 = 1.34
• COc1cc(/C=C/C(=O)N2CCN(Cc3noc(Cc4c[nH]c5ccccc45)n3)CC2)cc(OC)c1O = 1.23
• O=C(c1ccccc1)N1CCN(Cc2noc(Cc3c[nH]c4ccccc34)n2)CC1 = 1.03
• COc1ccccc1/C=C/C(=O)N1CCN(Cc2noc(Cc3c[nH]c4ccccc34)n2)CC1 = 1.23

----------
- System Tested: Nuclear factor erythroid 2-related factor 2 (Homo sapiens) (UniProt Q16236)
- Sequence (whole entry): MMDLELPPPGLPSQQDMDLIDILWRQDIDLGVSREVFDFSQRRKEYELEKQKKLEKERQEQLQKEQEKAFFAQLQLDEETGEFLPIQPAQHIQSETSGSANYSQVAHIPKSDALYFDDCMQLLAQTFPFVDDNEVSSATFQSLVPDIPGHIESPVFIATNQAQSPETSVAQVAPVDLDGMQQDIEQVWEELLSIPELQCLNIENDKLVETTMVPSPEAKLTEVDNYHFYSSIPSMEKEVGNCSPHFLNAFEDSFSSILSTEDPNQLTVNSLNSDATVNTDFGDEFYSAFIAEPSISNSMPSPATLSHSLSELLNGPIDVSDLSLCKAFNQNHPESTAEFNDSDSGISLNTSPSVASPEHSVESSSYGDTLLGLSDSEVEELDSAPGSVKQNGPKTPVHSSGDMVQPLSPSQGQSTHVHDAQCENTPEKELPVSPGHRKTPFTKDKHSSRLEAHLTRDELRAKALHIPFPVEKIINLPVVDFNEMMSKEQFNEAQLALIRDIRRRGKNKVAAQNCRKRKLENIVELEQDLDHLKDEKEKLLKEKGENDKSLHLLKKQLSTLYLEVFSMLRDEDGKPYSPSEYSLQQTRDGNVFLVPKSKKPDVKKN
- Protocol Summary: Induction of Nrf2/ARE activation in human Hela cells at 20 uM measured after 12 to 24 hrs by luciferase reporter gene assay relative to control
- Format: cell-based
- Cond: filed as activator, time 12-24 hrs
Value Type: fold change (FC)

// known answers, use as guide
* COc1ccccc1/C=C/C(=O)N1CCN(Cc2noc(Cc3c[nH]c4ccccc34)n2)CC1 | 4.25
* Fc1cccc(CN2CCN(Cc3noc(Cc4c[nH]c5ccccc45)n3)CC2)c1 | 1.86
* O=C(/C=C/c1ccc(O)c(O)c1)N1CCN(Cc2noc(Cc3c[nH]c4ccccc34)n2)CC1 | 7.86
* COc1ccc(/C=C/C(=O)N2CCN(Cc3noc(Cc4c[nH]c5ccccc45)n3)CC2)cc1OC | 7.22
* COc1cccc(/C=C/C(=O)N2CCN(Cc3noc(Cc4c[nH]c5ccccc45)n3)CC2)c1OC | 6.37

1. O=C(/C=C/c1ccc2c(c1)OCO2)N1CCN(Cc2noc(Cc3c[nH]c4ccccc34)n2)CC1
2. O=C(c1ccc(Br)cc1)N1CCN(Cc2noc(Cc3c[nH]c4ccccc34)n2)CC1
Exam item: // which entry has the larger fold change (FC) value, 1 or 2 ? Returns: label corresponding to the selected item.
Marked response: 1

meta.source: ChEMBL document CHEMBL5365471
